target: [Pyruvate dehydrogenase (acetyl-transferring)] kinase isozyme 2, mitochondrial (Homo sapiens); assay: Inhibition of recombinant full length human PDK2 (1 to 407 residues) expressed in baculovirus infected Sf9 cells using PDHA1 as substrate incubated for 1 hrs in presence of ATP by ADP-Glo luminescence assay
pIC50: −log10 of the molar value.

SMILES_TEXT	pIC50
CN(C)C(=O)c1ccc(S(=O)(=O)c2ccc(NC(=O)[C@@](C)(O)C(F)(F)F)c(Cl)c2)cc1	7.13
Cc1cc(C)c(S(=O)(=O)NCCO)cc1NS(=O)(=O)c1ccc(Cl)cc1	6.87

====

molecular target: [Pyruvate dehydrogenase (acetyl-transferring)] kinase isozyme 1, mitochondrial (Homo sapiens); test: Binding affinity to PDK1 (unknown origin) assessed as dissociation constant
Sequence (Q15118 whole entry): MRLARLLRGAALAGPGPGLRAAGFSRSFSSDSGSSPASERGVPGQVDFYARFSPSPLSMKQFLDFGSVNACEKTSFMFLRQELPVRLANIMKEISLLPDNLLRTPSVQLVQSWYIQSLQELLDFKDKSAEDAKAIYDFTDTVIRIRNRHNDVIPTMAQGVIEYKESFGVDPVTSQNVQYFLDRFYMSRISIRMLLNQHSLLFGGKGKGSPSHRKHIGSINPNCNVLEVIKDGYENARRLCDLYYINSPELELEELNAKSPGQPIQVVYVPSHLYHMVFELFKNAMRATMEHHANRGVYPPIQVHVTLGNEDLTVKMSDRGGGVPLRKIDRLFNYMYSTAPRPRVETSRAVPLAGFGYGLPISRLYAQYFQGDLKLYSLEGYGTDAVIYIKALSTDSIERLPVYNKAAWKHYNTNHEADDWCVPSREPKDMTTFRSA
EXPERIMENTAL_ENDPOINT: Kd (nM)

SMILES_TEXT	EXPERIMENTAL_ENDPOINT	READOUT_NUMBER
CN(C)C(=O)c1ccc(S(=O)(=O)c2ccc(NC(=O)[C@@](C)(O)C(F)(F)F)c(Cl)c2)cc1	Kd	148

====

tested on: A549; assay: Antiproliferative activity against human A549 cells assessed as reduction in cell viability incubated for 72 hrs under hypoxic condition by MTT assay; conditions: A549, 72 h
pIC50: −log10 of the molar value.

SMILES_TEXT	pIC50
Cc1cc(C)c(S(=O)(=O)NCCO)cc1NS(=O)(=O)c1ccc(Cl)cc1	5.25

====

test system: A549; test: Antiproliferative activity against human A549 cells assessed as reduction in cell viability incubated for 72 hrs by CCK8 assay; format: functional, cell-based; conditions: A549, 72 h

SMILES_TEXT	MEASUREMENT_TARGET	IC50
S=C(SSC(=S)N1CCOCC1)N1CCOCC1	A549	< 500 nM
